# PROTOCOL DESCRIPTION: Corrosion rate by LPR sweep, copper coupons in synthetic water, 50° C., 1 ppm free chlorine after 0.5 hrs (Examples 1 and 2)
# CONDITION CONTEXT: 2 ppm; 1 hrs
ENDPOINT NAME: corrosion rate (mpy)
Give bare numbers, in mpy.

CCCCCCCC(=O)NCCN(CCOCC(=O)[O-])CC(=O)[O-].[Na+].[Na+] [DCyADAA, Disodium Capryloamphodiacetate] ... 2.8540
CCCCCCCC(=O)NCCN(CCOCCC(=O)[O-])CCC(=O)[O-].[Na+].[Na+] [DCADPP, Disodium Capryloamphodipropionate] ... 2.1690
CCCCCCCCCCCC(=O)NCCN(CCOCC(=O)[O-])CC(=O)[O-].[Na+].[Na+] [DLADAA, Disodium Lauroamphodiacetate] ... 0.3923

Please turn your attention to the following entry.
Suppose we examine the molecule CCCCCCCCCCCCN(CCC(=O)[O-])CCC(=O)O.[Na+] [SL, Sodium Lauriminodipropionate, reference compound] ; what corrosion rate value has been reported?
0.9317

Each recorded value in this set is attributed to patent US20250270707A1.
